IC50 values by entry
Biological target: GADD45β/MKK7 complex (Homo sapiens)
Construct: Full-length human (h)MKK7 was expressed as a protein fused to an N-terminal GST tag (GST-MKK7); made in house
Sequence (O14733 whole entry, the tested form may be a part, one chain of several): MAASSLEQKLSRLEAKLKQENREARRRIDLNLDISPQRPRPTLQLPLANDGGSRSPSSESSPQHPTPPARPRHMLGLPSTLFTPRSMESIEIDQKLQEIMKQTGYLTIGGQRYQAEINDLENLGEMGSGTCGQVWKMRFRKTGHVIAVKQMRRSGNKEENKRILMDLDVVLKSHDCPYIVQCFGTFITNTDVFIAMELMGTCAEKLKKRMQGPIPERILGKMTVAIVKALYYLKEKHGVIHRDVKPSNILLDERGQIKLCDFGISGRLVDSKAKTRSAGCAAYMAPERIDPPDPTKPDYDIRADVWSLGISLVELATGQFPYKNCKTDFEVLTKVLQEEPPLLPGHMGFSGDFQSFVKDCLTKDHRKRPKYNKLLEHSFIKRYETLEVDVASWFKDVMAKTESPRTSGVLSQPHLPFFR
Experiment: ELISA GADD45β/MKK7 competition assay
Assay type: binding
Settings: Table S4; read-out: IC50s (ELISA)
Description: Additional details are provided in Supplemental Experimental Procedures. (1:1,000) and the HRP chromogenic substrate, o -phenylenediamine (OPD). GST -coated wells wer e […] Values were expressed as the percentage of inhibition of His6-hGADD45β binding to GST-hMKK7 relative to the binding measured in the absence of […] calculated using at least 7 concentrations of peptide and def ined as the mean concentration of peptide […]
Where a SMILES comes first, the peptide text is derived from it.

Please review the following examples before continuing.
CC(=O)N[C@@H](Cc1ccc(O)cc1)C(=O)N[C@@H](CCC(=O)O)C(=O)N[C@@H](CCCNC(=N)N)C(=O)N[C@@H](Cc1ccccc1)C(N)=O	0.4 nM
CC(=O)N[C@@H](Cc1c[nH]c2ccccc12)C(=O)N[C@@H](CC(=O)O)C(=O)N[C@@H](CCCNC(=N)N)C(=O)N[C@@H](Cc1c[nH]c2ccccc12)C(N)=O [Ac-WDRW-NH2] (Ac-WDRW-NH2)	< 42 nM
CC(=O)N[C@@H](Cc1c[nH]c2ccccc12)C(=O)N[C@@H](CC(=O)O)C(=O)N[C@@H](Cc1c[nH]cn1)C(=O)N[C@@H](Cc1ccccc1)C(N)=O [Ac-WDHF-NH2] (Ac-WDHF-NH2)	> 42 nM
N=C(N)NCCC[C@@H](NC(=O)[C@H](N)Cc1ccc(O)cc1)C(=O)N[C@H](Cc1ccc(O)cc1)C(N)=O	0.75 nM
CC(=O)N[C@H](Cc1ccc(O)cc1)C(=O)N[C@H](CCCNC(=N)N)C(=O)N[C@H](Cc1ccccc1)C(N)=O	0.16 nM
CC(=O)N[C@@H](Cc1ccc(O)cc1)C(=O)N[C@@H](CC(=O)O)C(=O)N[C@@H](CCCCN)C(=O)N[C@@H](Cc1c[nH]c2ccccc12)C(N)=O [Ac-YDKW-NH2] (Ac-YDKW-NH2)	> 10 nM

IC50 on GADD45β/MKK7 complex (Homo sapiens) for CC(=O)N[C@@H](Cc1c[nH]c2ccccc12)C(=O)N[C@@H](CCC(=O)O)C(=O)N[C@@H](CCCNC(=N)N)C(=O)N[C@@H](Cc1ccccc1)C(N)=O [Ac-WERF-NH2] (Ac-WERF-NH2) is > 42 nM

IC50 on GADD45β/MKK7 complex (Homo sapiens) for CC(=O)N[C@@H](Cc1ccc(O)cc1)C(=O)N[C@@H](CCC(=O)O)C(=O)N[C@@H](Cc1c[nH]cn1)C(=O)N[C@@H](Cc1c[nH]c2ccccc12)C(N)=O [Ac-YEHW-NH2] (Ac-YEHW-NH2) is < 42 nM

IC50 on GADD45β/MKK7 complex (Homo sapiens) for CC(=O)N[C@@H](Cc1ccc(O)cc1)C(=O)N[C@@H](CCC(=O)O)C(=O)N[C@@H](CCCCN)C(=O)N[C@@H](Cc1ccccc1)C(N)=O [Ac-YEKF-NH2] (Ac-YEKF-NH2) is < 42 nM

IC50 on GADD45β/MKK7 complex (Homo sapiens) for CC(=O)N[C@@H](Cc1c[nH]c2ccccc12)C(=O)N[C@@H](CCC(=O)O)C(=O)N[C@@H](Cc1c[nH]cn1)C(=O)N[C@@H](Cc1c[nH]c2ccccc12)C(N)=O [Ac-WEHW-NH2] (Ac-WEHW-NH2) is < 42 nM
